- tested.target: AhR (Homo sapiens)
- Construct: host or cells: HepG2
- Sequence (P35869 11-848): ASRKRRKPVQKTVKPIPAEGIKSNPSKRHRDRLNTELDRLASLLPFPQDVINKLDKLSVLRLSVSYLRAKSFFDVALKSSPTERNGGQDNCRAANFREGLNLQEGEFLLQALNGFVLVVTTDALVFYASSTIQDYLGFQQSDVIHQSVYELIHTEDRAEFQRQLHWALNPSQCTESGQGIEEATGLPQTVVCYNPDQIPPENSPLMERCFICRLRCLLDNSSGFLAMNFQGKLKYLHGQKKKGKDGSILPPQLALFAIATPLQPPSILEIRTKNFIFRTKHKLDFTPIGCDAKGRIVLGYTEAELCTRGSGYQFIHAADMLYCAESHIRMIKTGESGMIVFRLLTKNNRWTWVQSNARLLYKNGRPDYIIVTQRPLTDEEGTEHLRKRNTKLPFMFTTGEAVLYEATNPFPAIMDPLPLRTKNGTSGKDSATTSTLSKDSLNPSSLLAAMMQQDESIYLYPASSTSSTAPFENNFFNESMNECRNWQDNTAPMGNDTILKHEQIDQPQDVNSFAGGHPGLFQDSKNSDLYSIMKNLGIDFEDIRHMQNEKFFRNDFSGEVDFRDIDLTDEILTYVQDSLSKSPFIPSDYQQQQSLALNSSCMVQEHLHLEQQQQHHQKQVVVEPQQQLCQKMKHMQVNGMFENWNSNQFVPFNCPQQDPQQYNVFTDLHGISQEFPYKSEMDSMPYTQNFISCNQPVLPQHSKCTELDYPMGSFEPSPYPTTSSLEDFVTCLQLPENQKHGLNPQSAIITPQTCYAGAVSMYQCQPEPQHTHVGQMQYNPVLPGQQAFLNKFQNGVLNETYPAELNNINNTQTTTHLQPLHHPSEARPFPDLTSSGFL
- method.description: In vitro assay 1: XRE-luciferase reporter assay, antagonism in human cell line (HepG2)
- Type: cell-based
pIC50: −log10 of the molar value.
property.name: pIC50

CCOP(=O)(OCC)OCC(C)n1cnc2c(-c3cccnc3)nc(-c3ccc(Cl)cc3)cc2c1=O (stereo not shown) [Example 47]: 7.00 to 8.00

====

- tested.target: UniProt P30561
- method.description: In vitro assay 2: XRE-luciferase reporter assay, antagonism in mouse cell line (Hepa1c1c7)
- Type: cell-based
- particulars: Hepa1c1c7 XRE-Luc, AhR activating ligand such as kynurenic acid (no #), 6 hours
pIC50: −log10 of the molar value.
The following compounds are shown together with reported pIC50 values.
property.name: pIC50

O=c1c2cc(-c3ccc(Cl)cc3)nc(-c3cccnc3)c2ncn1[C@H]1CC[C@H](O)CC1: > 8.00
CC(=O)N1CCC(n2cnc3c(-c4cccnc4)nc(-c4ccc(Cl)cc4)cc3c2=O)CC1: > 8.00
